pIC50: −log10 of the molar value.
The following compounds have recorded pIC50 on hNMT (Homo sapiens).
Sequence (P30419 whole entry): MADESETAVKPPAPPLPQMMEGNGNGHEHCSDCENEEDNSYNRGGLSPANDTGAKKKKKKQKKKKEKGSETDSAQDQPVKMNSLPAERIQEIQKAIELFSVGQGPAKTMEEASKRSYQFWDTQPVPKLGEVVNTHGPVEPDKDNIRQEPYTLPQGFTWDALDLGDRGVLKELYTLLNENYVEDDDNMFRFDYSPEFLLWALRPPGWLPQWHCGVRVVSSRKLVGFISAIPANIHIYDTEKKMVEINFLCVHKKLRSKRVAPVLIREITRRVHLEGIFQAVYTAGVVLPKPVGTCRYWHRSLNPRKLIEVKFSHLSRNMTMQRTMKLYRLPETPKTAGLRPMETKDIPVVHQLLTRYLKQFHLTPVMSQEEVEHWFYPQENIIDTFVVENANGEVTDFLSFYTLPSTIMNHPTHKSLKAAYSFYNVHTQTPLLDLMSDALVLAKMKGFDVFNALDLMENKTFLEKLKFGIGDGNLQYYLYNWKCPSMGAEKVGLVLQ

CCOC(=O)CCN1C(=O)COc2ccccc21 [Compound 16]: < 4.00
O=C1CSC(c2ccccn2)N1c1ccc2ccccc2c1 (centres unmarked) [Compound 8]: < 4.00
CC(C)Cc1cc(CN2C(=O)COc3ccccc32)no1 [Compound 30]: 4.52
Cc1cc(CN2C(=O)COc3c(Br)cccc32)no1 [Compound 38]: < 4.00
Cc1cc(CN2C(=O)C(C)Oc3ccccc32)no1 (centres unmarked) [Compound 34]: < 4.00

### Prompt Entry Cc1nc(CN2C(=O)COc3ccccc32)no1 [Compound 28] , system hNMT (Homo sapiens): what pIC50 was measured?
### Response < 4.00

### Prompt Entry COc1cc(C2SCC(=O)N2Cc2ccccn2)ccc1O (centres unmarked) [Compound 13] , system hNMT (Homo sapiens): what pIC50 was measured?
### Response < 4.00

### Prompt Entry Cc1cc(CN2C(=O)COc3ccccc32)no1 [Compound 23] , system hNMT (Homo sapiens): what pIC50 was measured?
### Response < 4.00

### Prompt Entry CCOC(=O)C(C)N1C(=O)COc2ccccc21 (centres unmarked) [Compound 15] , system hNMT (Homo sapiens): what pIC50 was measured?
### Response < 4.00

### Prompt Entry COc1cc(C2SCC(=O)N2Cc2ccccc2)ccc1O (centres unmarked) [Compound 1] , system hNMT (Homo sapiens): what pIC50 was measured?
### Response 4.55

### Prompt Entry O=C1CSC(c2ccccc2)N1Cc1ccccn1 (centres unmarked) [Compound 12] , system hNMT (Homo sapiens): what pIC50 was measured?
### Response < 4.00

* * *

Catalogue of LE TbNMT (ligand efficiency) values
Target: TbNMT (Trypanosoma brucei brucei)
Sequence (Q388H8 1-446): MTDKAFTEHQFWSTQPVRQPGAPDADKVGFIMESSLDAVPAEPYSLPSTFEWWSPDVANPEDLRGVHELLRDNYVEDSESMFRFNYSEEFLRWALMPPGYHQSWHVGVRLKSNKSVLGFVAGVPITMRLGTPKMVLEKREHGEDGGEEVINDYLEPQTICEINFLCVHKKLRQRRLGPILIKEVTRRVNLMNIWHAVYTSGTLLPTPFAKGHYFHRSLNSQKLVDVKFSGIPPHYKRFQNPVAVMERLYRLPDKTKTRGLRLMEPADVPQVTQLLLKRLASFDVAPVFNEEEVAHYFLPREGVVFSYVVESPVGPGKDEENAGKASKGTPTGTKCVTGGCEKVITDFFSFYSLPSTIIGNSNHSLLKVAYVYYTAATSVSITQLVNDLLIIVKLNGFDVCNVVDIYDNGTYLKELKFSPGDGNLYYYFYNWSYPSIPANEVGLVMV
Test: biochemical
Assay type: biochemical
Details: calculated as 0.6 ln(IC50)/(heavy atom count)
Give a plain numeric answer without units written out.

The following compounds have reported results that may help.
Cc1cc(CN2C(=O)COc3cc(Cl)ccc32)no1: 0.37
CC(C)Cc1cc(CN2C(=O)COc3ccccc32)no1: 0.34
O=C1CSC(c2ccccn2)N1c1ccccc1Cl (stereo not drawn): 0.32
COc1cc(C2SCC(=O)N2Cc2ccccc2)ccc1O (stereo not drawn): 0.29
Cc1cc(CN2C(=O)COc3cc(CCCOC[C@@H]4CCN(C)C4)ccc32)no1: 0.38

### Prompt // lookup LE TbNMT (ligand efficiency) for COc1cc(C2SCC(=O)N2Cc2ccccn2)ccc1O (stereo not drawn)
### Response 0.42

### Prompt // lookup LE TbNMT (ligand efficiency) for O=C1COc2ccccc2N1Cc1nc2ccccc2o1
### Response 0.31

### Prompt // lookup LE TbNMT (ligand efficiency) for CCOC(=O)CN1C(=O)COc2ccccc21
### Response 0.42

### Prompt // lookup LE TbNMT (ligand efficiency) for Cc1cc(CN2C(=O)COc3c(Br)cccc32)no1
### Response 0.37

### Prompt // lookup LE TbNMT (ligand efficiency) for O=C1CSC(c2ccccn2)N1c1ccccc1 (stereo not drawn)
### Response 0.35

### Prompt // lookup LE TbNMT (ligand efficiency) for O=C1CSC(c2ccccc2)N1Cc1ccccn1 (stereo not drawn)
### Response 0.39

* * *

Catalogue of LE TbNMT (ligand efficiency) values
Target: TbNMT (Trypanosoma brucei brucei, UniProt Q388H8)
Assay: biochemical
Format: biochemical
Conditions: calculated as 0.6 ln(IC50)/(heavy atom count)
Give a plain numeric answer without units written out.

The following molecules have reported results that may help.
COc1cc(C2SCC(=O)N2Cc2ccco2)ccc1O (centres unmarked): 0.33
Cc1cccc(CN2C(=O)COc3ccccc32)n1: 0.31
Cc1cc(CN2C(=O)COc3cc(Br)ccc32)no1: 0.37
Cc1nc(CN2C(=O)COc3ccccc32)no1: 0.40

### Prompt // lookup LE TbNMT (ligand efficiency) for O=C1COc2ccccc2N1Cc1ccccn1
### Response 0.38

### Prompt // lookup LE TbNMT (ligand efficiency) for Cc1cc(CN2C(=O)COc3ccccc32)no1
### Response 0.43

### Prompt // lookup LE TbNMT (ligand efficiency) for CC(C)Cc1nc(CN2C(=O)COc3ccccc32)no1
### Response 0.32

### Prompt // lookup LE TbNMT (ligand efficiency) for Cc1nc(CN2C(=O)COc3ccccc32)cs1
### Response 0.33

### Prompt // lookup LE TbNMT (ligand efficiency) for CCOC(=O)CCN1C(=O)COc2ccccc21
### Response 0.38

### Prompt // lookup LE TbNMT (ligand efficiency) for O=C1CSC(c2ccccn2)N1c1cccc(Cl)c1 (centres unmarked)
### Response 0.36

### Prompt // lookup LE TbNMT (ligand efficiency) for O=C(CCN1C(=O)COc2ccccc21)N1CCCC1
### Response 0.34
